systemUnderTest: BTK (Homo sapiens, UniProt Q06187)
Sequence (Q06187 whole entry): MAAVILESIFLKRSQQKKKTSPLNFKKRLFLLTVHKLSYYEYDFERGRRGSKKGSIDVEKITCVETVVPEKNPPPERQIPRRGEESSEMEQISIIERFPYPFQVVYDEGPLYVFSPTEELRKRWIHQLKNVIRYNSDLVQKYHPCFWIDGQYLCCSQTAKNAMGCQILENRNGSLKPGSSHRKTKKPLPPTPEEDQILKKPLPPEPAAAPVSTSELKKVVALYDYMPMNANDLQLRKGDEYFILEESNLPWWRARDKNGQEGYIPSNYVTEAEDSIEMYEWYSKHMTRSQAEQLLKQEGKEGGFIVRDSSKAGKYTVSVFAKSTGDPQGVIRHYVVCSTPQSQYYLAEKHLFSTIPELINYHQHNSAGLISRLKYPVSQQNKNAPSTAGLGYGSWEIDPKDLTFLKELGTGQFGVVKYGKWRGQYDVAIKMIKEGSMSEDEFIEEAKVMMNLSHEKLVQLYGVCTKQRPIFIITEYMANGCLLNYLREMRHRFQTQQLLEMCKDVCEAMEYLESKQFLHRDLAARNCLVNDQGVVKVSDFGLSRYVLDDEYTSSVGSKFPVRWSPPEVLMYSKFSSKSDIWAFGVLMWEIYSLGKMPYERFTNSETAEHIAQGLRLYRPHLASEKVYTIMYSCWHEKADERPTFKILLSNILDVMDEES
method: BTK degradation, DC50 and Dmax of Table 1 (cell line not given)
Type: cell-based
Design: endogenous in cells
conditionSummary: concentration giving 50% reduction of BTK expression level
A collection of compounds and their measured DC50

// lookup DC50 for Nc1ncnc2c1c(-c1ccc(Oc3ccccc3)cc1)nn2[C@@H]1CCCN(C(=O)N2CCN(c3ccc4c(c3)CN(C3CCC(=O)NC3=O)C4=O)CC2)C1 (some centres unmarked) [Compound 46] > 50 nM

Thanks! And Nc1ncnc2c1c(-c1ccc(Oc3ccccc3)cc1)nn2C1CCN(CC2CCN(C(=O)N3CCC(CCN4CCN(c5ccc6c(c5)CN(C5CCC(=O)NC5=O)C6=O)CC4)CC3)CC2)CC1 (centres unmarked) [Compound 44] ? 10 to 50 nM

Consider next the compound Nc1ncnc2c1c(-c1ccc(Oc3ccccc3)cc1)nn2[C@@H]1CCCN(C2CCN(C(=O)N3CCN(CC4CCN(c5ccc6c(c5)C(=O)N(C5CCC(=O)NC5=O)C6=O)CC4)CC3)CC2)C1 (some centres unmarked) [Compound 171] in the same way. 10 to 50 nM

Try the compound Nc1ncnc2c1c(-c1ccc(Oc3ccccc3)cc1)nn2[C@@H]1CCCN(C2CCN(C(=O)N3CCN(c4ccc5c(c4)C(=O)N(C4CCC(=O)NC4=O)C5=O)CC3)CC2)C1 (some centres unmarked) [Compound 159] > 50 nM

Next up: Nc1ncnc2c1c(-c1ccc(Oc3ccccc3)cc1)nn2C1CCCN(CCOCCOCCN2CCN(c3ccc4c(c3)CN(C3CCC(=O)NC3=O)C4=O)CC2)C1 (centres unmarked) [Compound 4] < 10 nM

====

systemUnderTest: BTK (Homo sapiens, UniProt Q06187)
method: Degradation of BTK protein in Namalwa cells (Western blot; DC50, Dmax)
conditionSummary: read-out: DC50 (BTK degradation); concentration giving 50% reduction of BTK expression level; cell line not given
observedProperty: DC50

For NC(=O)c1c(-c2ccc(Oc3ccccc3)cc2)nn2c1NCC[C@H]2C1CCN(CC2CCN(C(=O)N3CCC(CC4CCN(c5ccc6c(c5)CN(C5CCC(=O)NC5=O)C6=O)CC4)CC3)CC2)CC1 (stereo partly drawn) , what is its reported DC50? < 10 nM

Also NC1=NC=NC2C1C(c1ccc(Oc3ccccc3)cc1)=NN2[C@@H]1CCCN(C(=O)N2CCN(C3CN(c4ccc5c(c4)CN(C4CCC(=O)NC4=O)C5=O)C3)CC2)C1 (stereo partly drawn) ? 10 to 50 nM

What do we get for Nc1ncnc2c1c(-c1ccc(Oc3ccccc3)cc1)nn2C1CCN(C(=O)N2CC(N3CCN(c4ccc5c(c4)C(=O)N(C4CCC(=O)NC4=O)C5=O)CC3)C2)CC1 (stereo not drawn) ? < 10 nM

====

systemUnderTest: BTK (Homo sapiens, UniProt Q06187)
method: Degradation of BTK protein in Namalwa cells (Western blot; DC50, Dmax)
The reader will find reported Dmax values listed item by item below.

Known results for compounds:
NC(=O)c1c(-c2ccc(Oc3ccccc3)cc2)nn2c1NCCC2C1CCN(CC2CCN(C(=O)N3CCN(c4ccc5c(c4)CN(C4CCC(=O)NC4=O)C5=O)CC3)CC2)CC1 (stereo not shown)	> 50%
NC(=O)c1c(-c2ccc(Oc3ccccc3)cc2)nn2c1NCCC2C1CCN(CC2CCN(CCC3CCN(c4ccc5c(c4)CN(C4CCC(=O)NC4=O)C5=O)CC3)CC2)CC1 (stereo not shown)	> 75%
Nc1ncnc2c1c(-c1ccc(Oc3ccccc3)cc1)nn2C1CCN(C2CCN(CCC3CCN(c4ccc5c(c4)C(=O)N(C4CCC(=O)NC4=O)C5=O)CC3)CC2)CC1 (stereo not shown)	> 75%

Looking for the measured Dmax of Nc1ncnc2c1c(-c1ccc(Oc3ccccc3)cc1)nn2C1CCN(C2CCN(C(=O)N3CCN(CCC4CCN(c5ccc6c(c5)C(=O)N(C5CCC(=O)NC5=O)C6=O)CC4)CC3)CC2)CC1 (stereo not shown) , can you help? > 75%

And what about the compound NC(=O)c1c(-c2ccc(Oc3ccccc3)cc2)nn2c1NCC[C@H]2C1CCN(C2CCN(C(=O)N3CCC(N4CCC(c5ccc6c(c5)C(=O)N(C5CCC(=O)NC5=O)C6=O)CC4)CC3)CC2)CC1 (stereo partly shown) ? > 90%

Same thing, different compound: NC(=O)c1c(-c2ccc(Oc3ccccc3)cc2)nn2c1NCCC2C1CCN(C2CCN(C(=O)N3CCN(Cc4ccc5c(c4)C(=O)N(C4CCC(=O)NC4=O)C5=O)CC3)CC2)CC1 (stereo not shown) > 50%

Same read-out for NC(=O)c1c(-c2ccc(Oc3ccccc3)cc2)nn2c1NCCC2C1CCN(CC2CCN(C(=O)N3CCN(Cc4ccc5c(c4)CN(C4CCC(=O)NC4=O)C5=O)CC3)CC2)CC1 (stereo not shown) ? > 75%

// next record Nc1ncnc2c1c(-c1ccc(Oc3ccccc3)cc1)nn2C1CCN(C2CCN(C(=O)N3CCC(N4CCC(c5ccc6c(c5)CN(C5CCC(=O)NC5=O)C6=O)CC4)CC3)CC2)CC1 (stereo not shown) > 90%

// query: Nc1ncnc2c1c(-c1ccc(Oc3ccccc3)cc1)nn2C1CCN(CC2CCN(CC3CCN(c4ccc5c(c4)C(=O)N(C4CCC(=O)NC4=O)C5=O)CC3)CC2)CC1 (stereo not shown) > 90%

What do you get for NC(=O)c1c(-c2ccc(Oc3ccccc3)cc2)nn2c1NCCC2C1CCN(C2CCN(CCN3CCC(c4ccc5c(c4)C(=O)N(C4CCC(=O)NC4=O)C5=O)CC3)CC2)CC1 (stereo not shown) ? > 75%
